readout_kind: glass transition temperature (°C)
# output: bare number, implied unit °C

[Q] Entry under review: *Oc1ccc(Oc2c(F)c(F)c(-c3c(F)c(F)c(*)c(F)c3F)c(F)c2F)cc1S(=O)(=O)O (repeat unit) . Reported glass transition temperature?
[A] 120.00

[Q] Could you do the same for *c1ccc(Oc2ccc(C3(c4ccc(Oc5ccc(N6C(=O)c7ccc(Oc8c(C)cc(C(C)(C)c9cc(C)c(Oc%10ccc%11c(c%10)C(=O)N(*)C%11=O)c(C)c9)cc8C)cc7C6=O)cc5)cc4)C4CC5CC(C4)CC3C5)cc2)cc1 (repeat unit) , please?
[A] 282.00

[Q] Would you mind doing *c1ccc2c(c1)C(=O)N(c1c(C)cc(C(c3cc(C)c(N4C(=O)c5ccc(C(*)(C(F)(F)F)C(F)(F)F)cc5C4=O)c(C)c3)c3cccc4ccccc34)cc1C)C2=O (repeat unit) as well?
[A] 314.00

[Q] Next: *OC(C)CCOC(=O)c1ccc(-c2ccc(C(*)=O)cc2)cc1 (repeat unit)
[A] 92.50

[Q] Field entry: *CC(*)(C)C(=O)OCCCn1c2ccccc2c2ccccc21 (repeat unit)
[A] 113.00

====

Give glass transition temperature for every item shown.
Lab book: enter the figure in °C, no units written.

[Q] State the recorded glass transition temperature for this entry: *CCCC(C)(C)CCCn1c(=O)c2cc3c(=O)n(*)c(=O)c3cc2c1=O (repeat unit)
[A] 135.00

[Q] Next: *Oc1ccc(C2(c3ccc(OC(=O)CCCCCCCC(*)=O)cc3)c3ccccc3-c3ccccc32)cc1 (repeat unit)
[A] 150.00

[Q] Consider next the compound *CC(*)(Cl)C(=O)OCCCCCCOc1ccc(C(=O)Oc2ccc(OCCCC)cc2)cc1 (repeat unit) in the same way.
[A] 112.50

[Q] Now give it for */C=C/c1cccc(/C=C/[Si](C)(C)c2ccc([Si](*)(C)C)cc2)c1 (repeat unit) too.
[A] 38.10

====

Would you mind telling me the reported glass transition temperature of each entry?
The reply should contain only the number, in °C.

[Q] Name the recorded glass transition temperature for *Oc1cccc(C(=O)Nc2ccc(-c3ccc(NC(=O)c4cccc(Oc5nc(*)nc(Sc6ccccc6)n5)c4)cc3)cc2)c1 (repeat unit) .
[A] 279.00

[Q] Then *C(=O)c1ccc2c(c1)C(=O)N(c1c(CC)cc(Cc3cc(CC)c(N4C(=O)c5ccc(*)cc5C4=O)c(CC)c3)cc1CC)C2=O (repeat unit) ?
[A] 272.50

[Q] Here is the next molecule: *C(F)(F)C(*)(OC(F)(F)F)OC(F)(F)F (repeat unit)
[A] -60.00

[Q] Okay, and *CCCCCCCCNC(=O)CCP(C)(=O)CCC(=O)N* (repeat unit) ?
[A] 52.00

[Q] What about this molecule? *CC(*)c1ccccc1COC(C)C (repeat unit)
[A] 88.00

====

Provide the recorded glass transition temperature for the entries that follow.
Could you give me the number in °C? Just the number is fine.

[Q] Quick one: glass transition temperature for *CCCCCCCCOC(=O)NCCCCCCNC(=O)O* (repeat unit) ?
[A] 58.00

[Q] Then this molecule: *CCOCCOC(=O)C(C)C(=O)O* (repeat unit)
[A] -29.00

[Q] // same read-out, input: *Oc1ccc(CC(NC(=O)CCc2ccc(OC(=O)CCCCCCCCC(*)=O)cc2)C(=O)OCC)cc1 (repeat unit)
[A] 44.00

====

readout_kind: glass transition temperature

[Q] Looking for the measured glass transition temperature of *Oc1ccc(C2(c3ccc(Oc4ccc(C(=O)c5ccc(*)cc5)cc4)c(C)c3)CCC3CCCCC3C2)cc1C (repeat unit) , can you help?
[A] 201.00 °C

[Q] Next entry: *CC(*)C(=O)OCCSC (repeat unit)
[A] -60.00 °C

[Q] # repeat for *c1cn(*)c2ccccc12 (repeat unit)
[A] 65.00 °C

[Q] Request: */C=C/* (repeat unit)
[A] -4.00 °C

====

readout_kind: glass transition temperature (°C)
Respond with the bare value in °C.

[Q] Consider the molecule shown here: *C(=O)c1ccc2c(c1)C(=O)N(c1cc(OCCCCCCCCCCCC)cc(N3C(=O)c4ccc(*)cc4C3=O)c1)C2=O (repeat unit) What is its recorded glass transition temperature?
[A] 182.00

[Q] Likewise for *CCCC(Cl)C(*)Cl (repeat unit) ?
[A] 42.00

[Q] Then *CCCCCCC(=O)Oc1ccc(-c2ccc(OC(=O)c3ccc4c(c3)C(=O)N(*)C4=O)cc2)cc1 (repeat unit) ?
[A] 107.00

[Q] Next record, please: *OC(=O)c1ccc(C(C)(C)c2ccc(C(*)=O)cc2)cc1 (repeat unit)
[A] 100.00

[Q] Consider next the molecule *CCCCCCCC(=O)N* (repeat unit) in the same way.
[A] 37.00

====

readout_kind: glass transition temperature (°C)
State the answer as a number, implicitly in °C.

[Q] Please report the recorded glass transition temperature for *CC(O)CN(*)c1cc(C)c(/N=N/c2ccc([N+](=O)[O-])cc2C)c(C)c1 (repeat unit) .
[A] 149.00

[Q] Next: *c1ccc2c(c1)C(=O)N(c1ccc(Oc3ccc(C(=O)c4cccc(N5C(=O)c6ccc(C(*)(C(F)(F)F)C(F)(F)F)cc6C5=O)c4)cc3)cc1)C2=O (repeat unit)
[A] 242.00

[Q] How about *c1cc(-n2c(=O)c3cc4c(=O)n(*)c(=O)c4cc3c2=O)c(O)cc1O (repeat unit) ?
[A] 362.00

[Q] Also *c1ccc(-c2cc(CCCCCCCC)c(-c3ccc(-c4ccc(-c5sc(-c6ccc([Si](CCCC)(CCCC)[Si](*)(CCCC)CCCC)s6)cc5CCCCCCCC)s4)s3)s2)s1 (repeat unit) , if possible.
[A] -10.00

[Q] Similarly, *c1ccc(Oc2ccc(C(=O)c3ccc(Oc4ccc(C(=O)c5ccc(Oc6ccc(-c7nc8ccccc8n7-c7ccc(-n8c(*)nc9ccccc98)cc7)cc6)cc5)cc4)cc3)cc2)cc1 (repeat unit) ?
[A] 223.00

[Q] Request: *c1ccc(-c2cc(-c3ccc(OCC(CC)CCCC)cc3)cc(-c3ccc(-c4ccc5c(c4)C(CCCCCC)(CCCCCC)c4cc(*)ccc4-5)cc3)c2-c2ccc(OCC(CC)CCCC)cc2)cc1 (repeat unit)
[A] 110.00

[Q] *CCCCCCCCCOC(=O)C(O)C(O)C(=O)O* (repeat unit) ?
[A] -11.00

[Q] Next record, please: *CC(*)(C)C(=O)OCCCOc1ccc2cc(C(=O)Oc3ccccc3)ccc2c1 (repeat unit)
[A] 84.00

[Q] Query *CC(*)(C)C(=O)OCc1ccsc1 (repeat unit) next
[A] 83.50

[Q] Repeat with *c1ccc(C(=O)c2ccc(-n3nc(-c4ccccc4)c4cc(Oc5ccc6c(-c7ccccc7)nn(*)c(=O)c6c5)ccc4c3=O)cc2)cc1 (repeat unit)
[A] 275.50

[Q] Consider next the molecule *C(=S)Nc1ccc(Oc2ccc(NC(=S)N3C(=O)c4ccc(C(c5ccc6c(c5)C(=O)N(*)C6=O)(C(F)(F)F)C(F)(F)F)cc4C3=O)cc2)cc1 (repeat unit) in the same way.
[A] 260.00

[Q] // same read-out, input: *CC(*)c1ccc(C(=O)c2ccc(OC)cc2)cc1 (repeat unit)
[A] 103.00

[Q] Now the molecule *CCCCCCCCCCCCCCNC(=O)CCCCCCCCCCCCCCCCC(=O)N* (repeat unit)
[A] 48.00

[Q] How about this molecule: *OC(COC(*)=O)COc1ccccc1 (repeat unit)
[A] 45.00

[Q] Same thing, different molecule: *c1ccc(C(=O)c2ccc(C(=O)c3ccc(S(*)(=O)=O)cc3)cc2)cc1 (repeat unit)
[A] 213.50

[Q] Queued: *CCCCCCCCCCN1C(=O)C2C3C=CC(C4C(=O)N(*)C(=O)C34)C2C1=O (repeat unit)
[A] 219.00

[Q] Same for *CCCCCCCCCCSSSS* (repeat unit)
[A] -76.00

[Q] # repeat for *CCCCCCCCCCCOc1ccc(CCc2ccc(O*)cc2C)cc1 (repeat unit)
[A] 3.90

[Q] Now consider *=Nc1ccc(Cc2ccc(NC(=*)c3ccccc3)cc2)cc1 (repeat unit) .
[A] 158.00

[Q] Let us now turn to *c1cccc(P(=O)(c2ccccc2)c2cccc(-n3c(=O)c4c(-c5ccccc5)c5c(=O)n(*)c(=O)c5c(-c5ccccc5)c4c3=O)c2)c1 (repeat unit)
[A] 342.00

[Q] One more molecule: *CC(*)(C)C(=O)Oc1ccc(C#N)cc1 (repeat unit)
[A] 155.00

[Q] Quick one: *CC(*)C(=O)OC(C)CC (repeat unit) [Poly(sec-butyl acrylate)]
[A] -20

====

readout_kind: glass transition temperature
Number first, unit second.

[Q] I have this compound here, *CC(*)(C)C(=O)Oc1ccc(C(=O)OC)cc1 (repeat unit) , and I need its recorded glass transition temperature.
[A] 109.00 °C

[Q] Record: *c1cccc(P(=O)(c2ccccc2)c2cccc(-n3c(=O)c4cc5c(=O)n(*)c(=O)c5c(-c5ccc(C(F)(F)F)cc5)c4c3=O)c2)c1 (repeat unit)
[A] 321.00 °C

[Q] Record: *CC(*)n1cc2ccccc2n1 (repeat unit)
[A] 41.50 °C
